Source listed as paper PMC12412652.

assayedTarget: T1, BCL-W (Homo sapiens)
T1 chain: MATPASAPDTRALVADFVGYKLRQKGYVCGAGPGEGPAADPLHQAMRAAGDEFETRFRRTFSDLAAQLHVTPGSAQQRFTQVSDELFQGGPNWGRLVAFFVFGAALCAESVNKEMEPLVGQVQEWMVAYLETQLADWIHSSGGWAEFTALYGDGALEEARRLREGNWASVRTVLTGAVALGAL
assayName: BLI
quantityMeasured: Kd (µM)
Answer format: numeric, µM implied, no suffix.

Example cases with answers are listed next.
binder: αBAX2 (designed binder, biotinylated for BLI (Avi tag). Limits not printed in the text (constructs as in cited earlier work); the soluble form lacking the C-terminal tail is taken by convention. Any solubility mutations are not stated) GADPKKVLDKARDQAENRVRELRQKLTELYKEARKLDLTQEERRKLIKRYKAAMNEAIKDIHEAIEQAKEEADKLKDAGLVNEQQLKELKQRLNEKALAAAFRASGDTWHARRKLQYG
resultNumber: 30
//
binder: αBAX1 (designed binder, biotinylated for BLI (Avi tag). Limits not printed in the text (constructs as in cited earlier work); the soluble form lacking the C-terminal tail is taken by convention. Any solubility mutations are not stated) GADPKKVLDKARDQAENRVRELAQKLEELYKEARKLDLTQEERRKLEKRYKAAMEEAIKDIHEAIEQAKEEADKLKDAGLVNEQQLKELKQRLNELAIAAAFRASGDTIEFRRKLQYG
resultNumber: 300
//
binder: BAK-CDP02 (BAK-targeting computationally designed protein 02 of 11) (designed binder, biotinylated for BLI (Avi tag). Limits not printed in the text (constructs as in cited earlier work); the soluble form lacking the C-terminal tail is taken by convention. Any solubility mutations are not stated) GADPKKVLDKAKDQAENVVRKLKQILEELYKEARKLDLTQDEKIELILRYIAAMLAAIGDILEAIRQAKEEADKLKKAGLVNSQQLDELKRRLEELRKEAARKARDYAEEFRNKLEYG
resultNumber: 0.8

Turning now to a further binder:
# query: Kd of entry αBAK2 (designed binder, biotinylated for BLI (Avi tag). Limits not printed in the text (constructs as in cited earlier work); the soluble form lacking the C-terminal tail is taken by convention. Any solubility mutations are not stated) GADPKKVLDKADDQMENVVVTLKQELEELAKERRKLDLTQSEKIELKLRYIVAHLAAIGDIEEAIREAKEEADKLKKAGLVNSQQFAEFKRRLEELHKEADRKRRDYAEEFRNKLEYG
5
